Data provenance is PubChem BioAssay (NCI).

test system: SNB-19 CNS; assay: NCI tumour cell line growth inhibition, 48 h
VALUE KIND: GI50

Solved cases below.
MOLECULE	GI50
NS(=O)(=O)c1ccc(N=Nc2c(O)[nH]c3cccc(CCc4ccncc4)c23)cc1	> 25 µM
CCOC(=O)Cc1csc(Nc2nc(O)c(C3=c4ccccc4=NC3=O)s2)n1	38.4 µM
O=C(CSc1nc2ccc([N+](=O)[O-])cc2[nH]1)Nc1ccc([N+](=O)[O-])cc1	3.02 µM
COC(=O)Nc1nc2ccc(C(=O)C3CC3)cc2[nH]1	0.88 µM
CCOC(=O)c1c2c(n(Cc3ccccc3)c1C)-c1nc[nH]c1C(=O)C2=O	17 µM
COc1ccc2c(c1)OC(N)=C(C#N)C2c1ccc(F)c(F)c1 (stereo not given)	0.58 µM
CN1CCN(C(=O)OCc2nc3c(N4CCOCC4)nc(-c4ccccc4)nc3n2C)CC1	1.45 µM
O=C([CH-]C(=O)c1ccccc1)c1ccccc1.O=C([CH-]C(=O)c1ccccc1)c1ccccc1.[CH2-]CCC.[CH2-]CCC.[Sn+4]	0.441 µM
Fc1ccc(-c2nn3c(COc4ccccc4Cl)nnc3s2)cc1Oc1ccccc1	23.4 µM
NNC(=S)N/N=C/c1ccccn1	3.57 µM

Q: Field request: GI50 | item: `CC[n+]1c(/C=C/c2ccc(N3CCCC3)cc2)cccc1/C=C/c1ccc(N2CCCC2)cc1`
Result: 0.31 µM

Q: What value of GI50 has been recorded for this entry: `O=C(/C=C/c1cccnc1)c1ccccc1`
Result: 11.7 µM
